substrate: vinyl acetate; conditions: pH 7; 25 °C
In this section we review reported Km values for a set of proteins.
Give your result in mM as a bare value.

Would you please look over these solved cases?
protein | unit_info | test_result
unnamed (protein) MVLKQRANYLGFLIVFFTAFLVEAVPIKRQSNSTVDSLPPLIPSRTSAPSSSPSTTDPEAPAMSRNGPLPSDVETKYGMALNATSYPDSVVQAMSIDGGIRAATSQEINELTYYTTLSANSYCRTVIPGATWDCIHCDATEDLKIIKTWSTLIYDTNAMVARGDSEKTIYIVFRGSSSIRNWIADLTFVPVSYPPVSGTKVHKGFLDSYGEVQNELVATVLDQFKQYPSYKVAVTGHSLGGATALLCALDLYQREEGLSSSNLFLYTQGQPRVGDPAFANYVVSTGIPYRRTVNERDIVPHLPPAAFGFLHAGEEYWITDNSPETVQVCTSDLETSDCSNSIVPFTSVLDHLSYFGINTGLCT | mM | 120
unnamed (protein) MAKKDEHLRKPEWLKIKLNTNENYTGLKKLMRENNLHTVCEEAKCPNIHECWAVRRTATFMILGSVCTRACRFCAVKTGLPTELDLQEPERVADSVALMNLKHAVITAVARDDQKDGGAGIFAETVRAIRRKSPFTTIEVLPSDMGGNYDNLKTLMDTRPDILNHNIETVRRLTPRVRARATYDRSLEFLRRAKEMQPDIPTKSSIMIGLGETKEEIIEVMDDLLANNVDIMAIGQYLQPTKKHLKVQKYYHPDEFAELKEIAMQKGFSHCEAGPLVRSSYHADEQVNEASKKRQAQA | mM | 280
unnamed (protein) MRSSLVLFFVSAWTALASPIRREVSQDLFNQFNLFAQYSAAAYCGKNNDAPAGTNITCTGNACPEVEKADATFLYSFEDSGVGDVTGFLALDNTNKLIVLSFRGSRSIENWIGNLNFDLKEINDICSGCRGHDGFTSSWRSVADTLRQKVEDAVREHPDYRVVFTGHSLGGALATVAGADLRGNGYDIDVFSYGAPRVGNRAFAEFLTVQTGGTLYRITHTNDIVPRLPPREFGYSHSSPEYWIKSGTLVPVTRNDIVKIEGIDATGGNNQPNIPDIPAHLWYFGLIGTCL | mM | 280

Now turn to the next protein.
Request the reported Km associated with unnamed (protein) MLDMPIDPVYYQLAEYFDSLPKFDQFSSAREYREAINRIYEERNRQLSQHERVERVEDRTIKGRNGDIRVRVYQQKPDSPVLVYYHGGGFVICSIESHDALCRRIARLSNSTVVSVDYRLAPEHKFPAAVYDCYDATKWVAENAEELRIDPSKIFVGGDSAGGNLAAAVSIMARDSGEDFIKHQILIYPVVNFVAPTPSLLEFGEGLWILDQKIMSWFSEQYFSREEDKFNPLASVIFADLENLPPALIITAEYDPLRDEGEVFGQMLRRAGVEASIVRYRGVLHGFINYYPVLKAARDAINQIAALLVFD
4
